# method-summary: Selectivity ratio of IC50 for human K562 cells to MIC for methicillin-resistant Staphylococcus aureus ATCC 33591
# Assay type: ADME, cell-based

{"columns": ["structure-string", "selectivity ratio"],
 "data": [
  ["NCCCC[C@H](N)C(=O)N[C@@H](Cc1ccccc1)CN(CC(=O)NCC12CC3CC(CC(C3)C1)C2)C(=O)CC12CC3CC(CC(C3)C1)C2", "> 50"]
]}

====

# method-summary: Selectivity ratio of IC50 for human HK2 cells to MIC for methicillin-resistant Staphylococcus aureus ATCC 33591
# Type: ADME, cell-based

{"columns": ["structure-string", "selectivity ratio"],
 "data": [
  ["NCCCC[C@H](N)C(=O)N[C@@H](Cc1ccccc1)CN(CC(=O)NCC12CC3CC(CC(C3)C1)C2)C(=O)CC12CC3CC(CC(C3)C1)C2", "> 50"]
]}
